Source: patent US20210347865A1

A collection of binders and their measured pKd
- TARGET SYSTEM: T1, recombinant cynomolgus ApoC3 (cynomolgus monkey, UniProt P18659 21-99, biotinylated in the captured-antigen assays (Tables 6 and 8); sites not stated)
- T1 construct: No cleavage site is stated, so none is applied; also called rcyApoC3; bio-rcyApoC3
- T1 sequence (P18659 21-99 limits assumed): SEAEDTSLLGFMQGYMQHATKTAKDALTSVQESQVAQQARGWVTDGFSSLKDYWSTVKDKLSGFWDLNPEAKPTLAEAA
- EXPERIMENT DESCRIPTION: SPR, biotinylated antigen captured on streptavidin chip, IgG as analyte, pH 7.4
pKd: −log10 of the molar value.

>  <BINDER>
29A06 IgG (antibody, V domains shown) VH: QLQLVESGGGLVQPGGSLRLSCAASGFTFGTYSMRWVRQVPRKALEWVSSISTDGGGTAYRDSVKGRFTISRDNAKNTLYLQMNNLKPEDTAIYYCVIAGYSDWGQGTQVTVSS VL: DVVLTQTPGSLSVVPGESASISCKASQNLVHSNGKTYLYWLLQKPGQSPQRLIYQVSNRGSEVPDRFTGSGSGTDFTLKISGVKAEDAGVYYCAQGTYWPKTFGQGTKLEIK

>  <pKd>
9.34

$$$$
>  <BINDER>
29A05 IgG (antibody, V domains shown) VH: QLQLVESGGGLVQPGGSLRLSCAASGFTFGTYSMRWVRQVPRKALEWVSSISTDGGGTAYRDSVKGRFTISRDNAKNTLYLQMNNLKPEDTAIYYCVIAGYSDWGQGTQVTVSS VL: DVVLTQTPGSLSVVPGESASISCKASQSLVYSDGKTYLYWLLQKPGQSPQRLIYQVSNRDSGVPDRFTGSGSGTDFTLKISGVKVEDAGVYYCAQGTYWPKTFGQGTKLEIK

>  <pKd>
9.19

$$$$
>  <BINDER>
29F10 IgG (antibody, V domains shown) VH: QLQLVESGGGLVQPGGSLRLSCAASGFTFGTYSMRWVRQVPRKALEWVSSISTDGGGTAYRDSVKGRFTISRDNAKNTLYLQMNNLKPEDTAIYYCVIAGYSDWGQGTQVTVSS VL: DVVLTQTPGSLSVVPGEPASVSCKASQSLVHPDGKTYLYWLLQKPGQSPQRLIYQVSNRGSGVPDRFTGSGSGTDFTLEISGVKAEDAGVYYCAQGTYWPKTFGQGTKLEIK

>  <pKd>
8.76

$$$$
>  <BINDER>
29G11 IgG (antibody, V domains shown) VH: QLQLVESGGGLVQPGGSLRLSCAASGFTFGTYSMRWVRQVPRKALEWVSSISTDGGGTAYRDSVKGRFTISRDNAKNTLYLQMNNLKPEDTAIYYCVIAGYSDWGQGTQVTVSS VL: DVVLTQTPGSLSVVPGGSASISCKASQSLVYSDGKTYLYWLRQKPGQSPQRLIYQVSNRPSGVPDRFTGSGSGTDFTLKISGVKAEDAGVYYCAQDTYSTKTFGQGTKLEIK

>  <pKd>
9.60

$$$$
>  <BINDER>
29G02 IgG (antibody, V domains shown) VH: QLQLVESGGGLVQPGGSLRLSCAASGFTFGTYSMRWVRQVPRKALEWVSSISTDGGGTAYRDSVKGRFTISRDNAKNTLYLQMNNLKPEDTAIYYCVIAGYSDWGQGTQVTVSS VL: DVVLTQTPGSLSVVPGESASISCKATQSLVHIDGKTYLYWLLQKPGQSPQRLIYQVSTRDSGVPDRFTGAGSGAEFTLKISGVKAEDAGVYYCAQDTYSTKTFGQGTKLEIK

>  <pKd>
9.43

$$$$
>  <BINDER>
29B03 IgG (antibody, V domains shown) VH: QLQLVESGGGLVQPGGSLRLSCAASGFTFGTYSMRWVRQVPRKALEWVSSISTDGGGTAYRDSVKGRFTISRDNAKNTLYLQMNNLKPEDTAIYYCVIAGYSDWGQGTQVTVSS VL: DVVLTQTPGSLSVVPGESASISCKAGQNLVHPDGKTYLYWLLQKPGQSPQRLIYQVSNRDSGVPDRFTGSGSGTDFTLKISGVKVEDAGVYYCAQGTYWPKTFGQGTKLEIK

>  <pKd>
9.48

$$$$
